src = patent US20240116892A1

Listed next: entries and their corresponding pKd.
test_system: JAK2 (JH1 domain-catalytic, Y1007F, Y1008F) kinase (Homo sapiens (Human), UniProt O60674, Y1007F/Y1008F)
Sequence (O60674 849-1124 Y1007F/Y1008F): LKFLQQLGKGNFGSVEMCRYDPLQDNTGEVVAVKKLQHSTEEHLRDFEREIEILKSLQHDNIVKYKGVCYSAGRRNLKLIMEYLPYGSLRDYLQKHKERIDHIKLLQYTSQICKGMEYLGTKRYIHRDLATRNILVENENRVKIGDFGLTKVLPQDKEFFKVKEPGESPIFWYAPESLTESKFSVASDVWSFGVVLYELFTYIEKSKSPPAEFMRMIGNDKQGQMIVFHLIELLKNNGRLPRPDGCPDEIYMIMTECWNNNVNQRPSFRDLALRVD
test_summary: JAK2 JH1 Domain Binding Assay
reported_conditions: qPCR readout
pKd: −log10 of the molar value.

As a guide, the following entries are already answered.
>>> df
                                   molecule        result
0  CN(C(=O)Nc1cc(C(F)(F)F)cn(C)c1=O)[C@H]1CCN(c2cnc3[nH]ncc3c2)C[C@H]1F (stereo in doubt)        > 8.00
1  CN(C(=O)Nc1cc(C(F)(F)F)cn(C)c1=O)[C@H]1CC=C(c2cnc3[nH]ccc3n2)CC1 (single isomer, unassigned)        > 8.00
2  Cn1cc(C(F)(F)F)cc(NC(=O)N2CC=CC23CCN(c2cnc4[nH]ncc4c2)CC3)c1=O  7.30 to 8.00
3  Cc1cc(NC(=O)N(C)C2CCN(c3cnccn3)CC2)cc(C(F)(F)F)c1  7.30 to 8.00

Name the recorded pKd for CC1CN(C(=O)Nc2cc(C(F)(F)F)cn(C)c2=O)C2(CCN(c3cnc4[nH]cc(F)c4n3)CC2)C1 (single isomer, unassigned) [Example I-54-b] . 6.00 to 7.30

What do we get for CO[C@H]1C[C@H](n2[nH]c3ncc(N4CCC(N(C)C(=O)Nc5cc(C(F)(F)F)cn(C)c5=O)CC4)cc3c2=O)C1 ? 5.30 to 6.00
